Data provenance is patent US20250084060A1.

Measurement record for PRMT5 (Homo sapiens (Human)); quantity recorded: pIC50.
# pIC50: negative log10 of molar concentration; output just the value

Prompt: Please look up its pIC50: COc1ccc(-c2ccc3c(=O)n(C[C@H](O)CN4CCc5ccccc5C4)c(=O)n(CC4CC4)c3c2)cn1 [Compound 91]
Response: 7.37

Prompt: Please look up its pIC50: COCCn1c(=O)n(CC(O)CN2CCc3ccccc3C2)c(=O)c2ccccc21 (stereo not shown) [Compound 65]
Response: 6.29

Prompt: Please look up its pIC50: O=c1[nH]c2ccccc2c(=O)n1C[C@H](O)CN1CCc2ccccc2C1 [Compound 64]
Response: 6.44

Prompt: Please look up its pIC50: COc1ccc2c(=O)n(C[C@H](O)CN3CCc4ccccc4C3)c(=O)[nH]c2c1 [Compound 82]
Response: 7.18
